Reference for the values: patent US20050256301A1

# systemUnderTest: UniProt:P0C1U8
# Sequence (P0C1U8 69-336 limits assumed): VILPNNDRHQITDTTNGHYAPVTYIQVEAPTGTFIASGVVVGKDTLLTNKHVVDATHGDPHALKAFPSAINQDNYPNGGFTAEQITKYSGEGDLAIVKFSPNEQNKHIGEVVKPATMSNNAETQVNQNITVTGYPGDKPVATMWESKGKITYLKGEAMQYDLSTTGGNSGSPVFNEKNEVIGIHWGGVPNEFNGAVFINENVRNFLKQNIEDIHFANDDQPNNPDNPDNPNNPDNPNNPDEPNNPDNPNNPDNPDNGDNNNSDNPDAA
# conditionDescription: pH 8
readoutType: half-life

Give recorded half-life with UniProt:P0C1U8 for the following compound: "CC(C)C[C@@H]1NC(=O)[C@H](CC(N)=O)NC(=O)[C@H](CO)NC(=O)[C@H](Cc2cnc[nH]2)NC(=O)[C@H](CCC(=O)O)NC(=O)[C@H](CC(C)C)NC(=O)[C@H](Cc2cnc[nH]2)NC(=O)[C@@H]2CSSC[C@H](NC(=O)CN)C(=O)N[C@@H](CSSC[C@@H](C(N)=O)NC1=O)C(=O)N[C@@H](CO)C(=O)N[C@@H](CC(N)=O)C(=O)N1CCC[C@H]1C(=O)N[C@@H](C(C)C)C(=O)N2"
~10 h
